Value source: ChEMBL document CHEMBL4007482

Assay: Apparent volume of distribution in C57BL/6J mouse at 5 mg/kg, iv by LC-MS/MS analysis
Format: ADME, organism-based
Conditions: in vivo, read-out: Vz
assay.readout: Vd
Give your result as the value with the unit written after it.

Which Vd is listed for COc1ccc(SCc2cnc(SCc3c(F)cc(-c4nn[nH]n4)cc3F)n2-c2ccc(F)cc2)cc1OC ?
8.24 L/kg

* * *

Experiment: AUC (0 to infinity) in C57BL/6J mouse at 5 mg/kg, iv by LC-MS/MS analysis
Format: ADME, organism-based
Design: dose 5 mg/kg, time infinity, route intravenous
Conditions: in vivo
assay.readout: AUC(0-inf)

Which AUC(0-inf) is listed for COc1ccc(SCc2cnc(SCc3c(F)cc(-c4nn[nH]n4)cc3F)n2-c2ccc(F)cc2)cc1OC ?
390 ng·h/mL

* * *

Test: Plasma concentration in fasted C57BL/6J mouse at 30 mg/kg, sc after 45 mins
Assay type: ADME, organism-based
assay.readout: concentration at 0.75 h

Which concentration at 0.75 h is listed for COc1ccc(SCc2cnc(SCc3c(F)cc(-c4nn[nH]n4)cc3F)n2-c2ccc(F)cc2)cc1OC ?
15.8 µM

* * *

Assay: AUClast in C57BL/6J mouse at 5 mg/kg, iv by LC-MS/MS analysis
Assay type: ADME, organism-based
Set-up: dose 5 mg/kg, route intravenous, time 0 - last
Settings: in vivo
assay.readout: AUC(0-t) (ng·h/mL)
Just the number in ng·h/mL, nothing appended.

Which AUC(0-t) is listed for COc1ccc(SCc2cnc(SCc3c(F)cc(-c4nn[nH]n4)cc3F)n2-c2ccc(F)cc2)cc1OC ?
379

* * *

Test: Half life in C57BL/6J mouse at 5 mg/kg, iv by LC-MS/MS analysis
Type: ADME, organism-based
Conditions: in vivo
assay.readout: half-life

Which half-life is listed for COc1ccc(SCc2cnc(SCc3c(F)cc(-c4nn[nH]n4)cc3F)n2-c2ccc(F)cc2)cc1OC ?
26.7 min

* * *

Test: MRT in C57BL/6J mouse at 20 mg/kg, po via gavage by LC-MS/MS analysis
Type: ADME, organism-based
Conditions: in vivo
assay.readout: MRT (h)
Just the number in h, nothing appended.

Which MRT is listed for COc1ccc(SCc2cnc(SCc3c(F)cc(-c4nn[nH]n4)cc3F)n2-c2ccc(F)cc2)cc1OC ?
1.37

* * *

Test: Half life in C57BL/6J mouse at 20 mg/kg, po via gavage by LC-MS/MS analysis
Assay type: ADME, organism-based
Conditions: in vivo
assay.readout: half-life (h)
Just the number in h, nothing appended.

Which half-life is listed for COc1ccc(SCc2cnc(SCc3c(F)cc(-c4nn[nH]n4)cc3F)n2-c2ccc(F)cc2)cc1OC ?
2.73

* * *

Assay: Tmax in C57BL/6J mouse at 20 mg/kg, po via gavage by LC-MS/MS analysis
Assay type: ADME, organism-based
Conditions: in vivo
assay.readout: Tmax (min)
Just the number in min, nothing appended.

Which Tmax is listed for COc1ccc(SCc2cnc(SCc3c(F)cc(-c4nn[nH]n4)cc3F)n2-c2ccc(F)cc2)cc1OC ?
30

* * *

Experiment: Volume of distribution at steady state in C57BL/6J mouse at 5 mg/kg, iv by LC-MS/MS analysis
Assay type: ADME, organism-based
Settings: in vivo, read-out: Vdss
assay.readout: Vd (L/kg)
Just the number in L/kg, nothing appended.

Which Vd is listed for COc1ccc(SCc2cnc(SCc3c(F)cc(-c4nn[nH]n4)cc3F)n2-c2ccc(F)cc2)cc1OC ?
4.44
